Molecular target: UniProt:P45452
Test: MMP 13 inhibition (IC50 / manual assay; method not described)
Assay type: biochemical
Parameter IC50: see the listing below.
Assay Readout: IC50 (nM)

COc1ccc(S(=O)(=O)C(CC=C(C)C)(Cc2cccnc2)C(=O)NO)cc1 (stereo not drawn): 3
COc1ccc(CCN2CCC(C(=O)NO)(S(=O)(=O)c3ccc(OC)cc3)CC2)cc1: 1.9
COc1ccc(S(=O)(=O)C(C)(CC=Cc2ccccc2)C(=O)NO)cc1 (stereo not drawn): 12

====

Biological target: MMP 9 (Homo sapiens, UniProt P14780)
Construct: from tissue; host or cells: human neutrophils
Sequence (P14780 94-707): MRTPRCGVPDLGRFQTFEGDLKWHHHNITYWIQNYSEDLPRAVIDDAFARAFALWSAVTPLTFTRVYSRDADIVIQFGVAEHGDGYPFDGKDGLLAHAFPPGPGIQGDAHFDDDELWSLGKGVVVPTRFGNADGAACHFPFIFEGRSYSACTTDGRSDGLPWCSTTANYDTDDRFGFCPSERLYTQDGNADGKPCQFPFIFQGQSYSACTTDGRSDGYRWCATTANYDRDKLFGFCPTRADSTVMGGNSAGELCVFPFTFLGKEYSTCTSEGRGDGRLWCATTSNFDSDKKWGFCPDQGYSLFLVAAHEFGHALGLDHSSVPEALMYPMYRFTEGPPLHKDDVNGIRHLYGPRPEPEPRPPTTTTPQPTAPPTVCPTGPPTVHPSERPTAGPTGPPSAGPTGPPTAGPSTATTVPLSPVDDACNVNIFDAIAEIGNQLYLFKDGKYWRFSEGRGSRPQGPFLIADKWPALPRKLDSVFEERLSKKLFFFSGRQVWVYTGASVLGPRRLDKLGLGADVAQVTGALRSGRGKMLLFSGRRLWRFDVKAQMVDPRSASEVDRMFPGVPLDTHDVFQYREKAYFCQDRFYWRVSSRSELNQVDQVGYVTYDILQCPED
Assay: In Vitro Gelatinase Assay
Format: biochemical
Conditions: human neutrophil gelatinase B; read-out: MMP 9 IC 50
Assay Readout: IC50 (µM)

COc1ccc(S(=O)(=O)C2(C(=O)NO)CCN(Cc3ccc(OCCN4CCCCC4)cc3)CC2)cc1: 0.0027
COc1ccc(S(=O)(=O)C2(C(=O)NO)CCN(C(C)C)CC2)cc1: 0.374
COc1ccc(S(=O)(=O)C2(C(=O)NO)CCN(CCCOc3ccccc3)CC2)cc1: 0.0442
CC#CCC(CC#CC)(C(=O)NO)S(=O)(=O)c1ccc(OC)cc1: 0.011
COc1ccc(S(=O)(=O)C2(C(=O)NO)CCN(Cc3ccc(Br)cc3)CC2)cc1: 0.0103
COc1ccc(S(=O)(=O)C2(C(=O)NO)CCN(Cc3ccc(Cl)c(Cl)c3)CC2)cc1: 0.0058
C#CCC(Cc1cccnc1)(C(=O)NO)S(=O)(=O)c1ccc(OC)cc1 (centres unmarked): 0.0834
COc1ccc([S+]([O-])C(C)(CC=C(C)C)C(=O)NO)cc1 (centres unmarked): 0.0214

====

Parameter pIC50: see the listing below.
Target: MMP 1 (Homo sapiens)
Construct: human recombinant fibroblast collagenase (truncated, mw= 18,828, WAR, Radnor)
Sequence (P03956 100-269 limits assumed): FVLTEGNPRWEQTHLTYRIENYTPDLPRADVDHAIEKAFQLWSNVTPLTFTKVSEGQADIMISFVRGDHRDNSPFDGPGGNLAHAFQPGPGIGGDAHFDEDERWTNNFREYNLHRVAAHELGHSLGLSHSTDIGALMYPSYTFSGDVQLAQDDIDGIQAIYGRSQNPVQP
Experiment: In Vitro Collagenase Assay
Assay type: biochemical
Settings: human recombinant fibroblast collagenase; read-out: MMP 1 IC 50
pIC50: −log10 of the molar value.
Assay Readout: pIC50

CCCCCC#CCC(Cc1cccnc1)(C(=O)NO)S(=O)(=O)c1ccc(OC)cc1 (stereo not shown): 6.86
COc1ccc(S(=O)(=O)C(C)(CC=C(C)CCC=C(C)C)C(=O)NO)cc1 (stereo not shown): 6.55
COc1ccc(S(=O)(=O)C2(C(=O)NO)CCN(CC=C(C)C)CC2)cc1: 5.86
COc1ccc(S(=O)(=O)C(C)(Cc2cccc(OCCN3CCCCC3)c2)C(=O)NO)cc1 (stereo not shown): 6.66

====

Biological target: MMP 13 (Homo sapiens, UniProt P45452)
Assay: MMP 13 inhibition (IC50 / manual assay; method not described)
Format: biochemical
Details: read-out: MMP 13 % inhibition at 1 micromolar
Assay Readout: inhibition at 1 µM (%)

COc1ccc(SC(C(=O)NO)C(C)C)cc1 (centres unmarked) [Example 4]: 17.1
CC(C(=O)O)S(=O)(=O)CCCCCCCCS(=O)(=O)C(C)C(=O)NO (centres unmarked) [Example 49]: 54.6
Cn1ccnc1S(=O)(=O)C(C)(Cc1ccc(-c2ccccc2)cc1)C(=O)NO (centres unmarked) [Example 47]: 7.12
CCCCCC(Sc1ccc(OC)cc1)C(=O)NO (centres unmarked) [Example 80]: 63.6
COc1ccc(S(=O)(=O)C(CCN(C(C)C)C(C)C)(Cc2ccccc2)C(=O)NO)cc1 (centres unmarked) [Example 64]: 36.7

====

Target: MMP 13 (Homo sapiens)
Assay: MMP 13 inhibition (IC50 / manual assay; method not described)
Type: biochemical
Conditions: read-out: MMP 13 IC 50
Threshold 20 nM: IC50 strictly smaller gives T, otherwise F.

CCC(Cc1ccc(OCCN2CCOCC2)cc1)(C(=O)NO)S(=O)(=O)c1ccc(OC)cc1 (stereo not drawn): T
COc1ccc(S(=O)(=O)C2(C(=O)NO)CCN(CCCOc3ccccc3)CC2)cc1: T
CC#CCC(Cc1cccnc1)(C(=O)NO)S(=O)(=O)c1ccc(F)cc1 (stereo not drawn): F
COc1ccc([S+]([O-])C(C)(Cc2ccccc2)C(=O)NO)cc1 (stereo not drawn): T
CCCCOc1ccc(S(=O)(=O)C(C)(Cc2ccc(OCCN3CCCCC3)cc2)C(=O)NO)cc1 (stereo not drawn): T
COc1ccc(S(=O)(=O)C2(C(=O)NO)CCN(C(C)(C)C)CC2)cc1: F
COc1ccc([S+]([O-])C(C(=O)NO)C(C)C)cc1 (stereo not drawn): F
COc1ccc(S(=O)(=O)C(CC=C(C)C)(Cc2ccc(OCCN3CCOCC3)cc2)C(=O)NO)cc1 (stereo not drawn): F
CC#CCC(CC#CC)(C(=O)NO)S(=O)(=O)c1ccc(F)cc1: F
COc1ccc(S(=O)(=O)C2(C(=O)NO)CCN(Cc3ccc(Cl)c(Cl)c3)CC2)cc1: T
COc1ccc(S(=O)(=O)C2(C(=O)NO)CCCC2)cc1: F
COc1ccc(S(=O)(=O)C(Cc2cccnc2)(CC2CCCCC2)C(=O)NO)cc1 (stereo not drawn): T
CCCCOc1ccc(S(=O)(=O)C2(C(=O)NO)CCN(Cc3ccc(OC)cc3)CC2)cc1: T
COc1ccc(S(=O)(=O)C2(C(=O)NO)CCN(Cc3ccc(C)cc3)CC2)cc1: T
COc1ccc(S(=O)(=O)C(Cc2cccnc2)(CC(C)C)C(=O)NO)cc1 (stereo not drawn): F

====

Target: TACE (Homo sapiens)
Construct: purchased Immunex
Test: Procedure for Measuring TACE Inhibition
Type: biochemical
Conditions: read-out: TACE % inhibition at 1 micromolar
Parameter inhibition at 1 µM: see the listing below.
Assay Readout: inhibition at 1 µM (%)

C#CCC(Cc1cccnc1)(C(=O)NO)S(=O)(=O)c1ccc(OC)cc1 (centres unmarked): 23.8
COc1ccc(S(=O)(=O)C(C)(Cc2cccnc2)C(=O)NO)cc1 (centres unmarked): 17.2
COc1ccc([S+]([O-])C(C)(CC=C(C)C)C(=O)NO)cc1 (centres unmarked): 40.4
COc1ccc(S(=O)(=O)C(C)(Cc2ccc(Br)cc2)C(=O)NO)cc1 (centres unmarked): 48.1
COc1ccc(S(=O)(=O)C2(C(=O)NO)CCN(C)CC2)cc1: 20.2
COc1ccc(S(=O)(=O)C(C)(Cc2ccc(-c3ccccc3)cc2)C(=O)NO)cc1 (centres unmarked): 17.2
CC#CCC(CC#CC)(C(=O)NO)S(=O)(=O)c1ccc(F)cc1: 24.6
CCCCOc1ccc(S(=O)(=O)C2(C(=O)NO)CCN(Cc3ccc(F)cc3)CC2)cc1: 39.5
COc1ccc(S(=O)(=O)C(C(=O)NO)C(C)C)cc1 (centres unmarked): 52.6
COc1ccc(S(=O)(=O)C2(C(=O)NO)CCN(CC=C(C)C)CC2)cc1: 49
C#CCC(CC#C)(C(=O)NO)S(=O)(=O)c1ccc(OC)cc1: 20.2
CCN1CCC(C(=O)NO)(S(=O)(=O)c2ccc(OC)cc2)CC1: 25.4
Cn1ccnc1S(=O)(=O)C(C)(Cc1ccc(-c2ccccc2)cc1)C(=O)NO (centres unmarked): 3.3
COc1ccc(S(=O)(=O)C(CCN(C(C)C)C(C)C)(Cc2ccccc2)C(=O)NO)cc1 (centres unmarked): 29.7
COc1ccc(CCN2CCC(C(=O)NO)(S(=O)(=O)c3ccc(OC)cc3)CC2)cc1: 53
CCCC(Cc1ccc(OCCN2CCCCCC2)cc1)(C(=O)NO)S(=O)(=O)c1ccc(OC)cc1 (centres unmarked): 33.1
COc1ccc(S(=O)(=O)C(C)(Cc2ccccc2Br)C(=O)NO)cc1 (centres unmarked): 21.7

====

Molecular target: TACE (Homo sapiens, UniProt P78536)
Construct: purchased Immunex
Sequence (P78536 215-824): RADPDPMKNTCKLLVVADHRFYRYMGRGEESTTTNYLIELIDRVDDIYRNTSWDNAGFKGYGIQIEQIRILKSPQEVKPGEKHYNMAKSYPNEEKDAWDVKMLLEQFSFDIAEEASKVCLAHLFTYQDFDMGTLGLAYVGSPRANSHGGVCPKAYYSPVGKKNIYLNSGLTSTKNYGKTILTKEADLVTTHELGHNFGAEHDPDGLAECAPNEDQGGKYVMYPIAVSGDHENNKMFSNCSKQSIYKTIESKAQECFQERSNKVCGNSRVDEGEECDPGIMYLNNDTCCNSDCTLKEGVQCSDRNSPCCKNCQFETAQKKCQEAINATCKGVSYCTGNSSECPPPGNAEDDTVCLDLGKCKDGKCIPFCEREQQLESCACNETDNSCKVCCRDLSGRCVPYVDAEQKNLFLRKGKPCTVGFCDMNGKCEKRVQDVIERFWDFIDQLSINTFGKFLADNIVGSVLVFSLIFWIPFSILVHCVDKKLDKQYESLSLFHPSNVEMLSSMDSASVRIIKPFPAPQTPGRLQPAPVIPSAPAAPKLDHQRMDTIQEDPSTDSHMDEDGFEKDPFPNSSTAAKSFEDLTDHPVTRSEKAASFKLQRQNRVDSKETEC
Experiment: Procedure for Measuring TACE Inhibition
Format: biochemical
Settings: read-out: TACE IC 50
pIC50: −log10 of the molar value.
Assay Readout: pIC50

COc1ccc(S(=O)(=O)C2(C(=O)NO)CCN(Cc3ccccc3)CC2)cc1 [Example 83]: 6.64
COc1ccc(S(=O)(=O)C2(C(=O)NO)CCN(Cc3cccc(OC)c3)CC2)cc1 [Example 84]: 6.67
COc1ccc(S(=O)(=O)C(C)(CC=C(C)C)C(=O)NO)cc1 (centres unmarked) [Example 13]: 6.20
CCCCC[C@@H](C(=O)NO)[S@@+]([O-])c1ccc(OC)cc1 (stereo in doubt) [Example 81b]: 6.64
CCCCCCCCC(Cc1cccnc1)(C(=O)NO)S(=O)(=O)c1ccc(OC)cc1 (centres unmarked) [Example 62]: 6.17
COc1ccc(S(=O)(=O)C(C)(CCCCN2C(=O)c3ccccc3C2=O)C(=O)NO)cc1 (centres unmarked) [Example 31]: 6.16
COc1ccc(S(=O)(=O)C(CC=C(C)C)(Cc2cccnc2)C(=O)NO)cc1 (centres unmarked) [Example 63]: 6.69
COc1ccc(S(=O)(=O)C2(C(=O)NO)CCN(Cc3ccc(C)cc3)CC2)cc1 [Example 86]: 6.65

====

Biological target: MMP 9 (Homo sapiens)
Construct: from tissue; host or cells: human neutrophils
Experiment: In Vitro Gelatinase Assay
Type: biochemical
Settings: human neutrophil gelatinase B; read-out: MMP 9 IC 50
pIC50: −log10 of the molar value.
Assay Readout: pIC50

COc1ccc(S(=O)(=O)C(C)(Cc2ccc(Br)cc2)C(=O)NO)cc1 (centres unmarked): 7.98
COc1ccc(S(=O)(=O)C(C)(CC=C(C)CCC=C(C)C)C(=O)NO)cc1 (centres unmarked): 7.77
COc1ccc(S(=O)(=O)C(C)(CCCCN2C(=O)c3ccccc3C2=O)C(=O)NO)cc1 (centres unmarked): 7.82
COc1ccc(S(=O)(=O)C2(C(=O)NO)CCN(Cc3cccc(OC)c3)CC2)cc1: 8.06
COc1ccc(S(=O)(=O)C(C)(Cc2cccc(OCCN3CCOCC3)c2)C(=O)NO)cc1 (centres unmarked): 8.09
